- Measurement Target: CFTR (Homo sapiens, UniProt P13569)
- Sequence (P13569 with tags, fused parts or gaps DEL508-508): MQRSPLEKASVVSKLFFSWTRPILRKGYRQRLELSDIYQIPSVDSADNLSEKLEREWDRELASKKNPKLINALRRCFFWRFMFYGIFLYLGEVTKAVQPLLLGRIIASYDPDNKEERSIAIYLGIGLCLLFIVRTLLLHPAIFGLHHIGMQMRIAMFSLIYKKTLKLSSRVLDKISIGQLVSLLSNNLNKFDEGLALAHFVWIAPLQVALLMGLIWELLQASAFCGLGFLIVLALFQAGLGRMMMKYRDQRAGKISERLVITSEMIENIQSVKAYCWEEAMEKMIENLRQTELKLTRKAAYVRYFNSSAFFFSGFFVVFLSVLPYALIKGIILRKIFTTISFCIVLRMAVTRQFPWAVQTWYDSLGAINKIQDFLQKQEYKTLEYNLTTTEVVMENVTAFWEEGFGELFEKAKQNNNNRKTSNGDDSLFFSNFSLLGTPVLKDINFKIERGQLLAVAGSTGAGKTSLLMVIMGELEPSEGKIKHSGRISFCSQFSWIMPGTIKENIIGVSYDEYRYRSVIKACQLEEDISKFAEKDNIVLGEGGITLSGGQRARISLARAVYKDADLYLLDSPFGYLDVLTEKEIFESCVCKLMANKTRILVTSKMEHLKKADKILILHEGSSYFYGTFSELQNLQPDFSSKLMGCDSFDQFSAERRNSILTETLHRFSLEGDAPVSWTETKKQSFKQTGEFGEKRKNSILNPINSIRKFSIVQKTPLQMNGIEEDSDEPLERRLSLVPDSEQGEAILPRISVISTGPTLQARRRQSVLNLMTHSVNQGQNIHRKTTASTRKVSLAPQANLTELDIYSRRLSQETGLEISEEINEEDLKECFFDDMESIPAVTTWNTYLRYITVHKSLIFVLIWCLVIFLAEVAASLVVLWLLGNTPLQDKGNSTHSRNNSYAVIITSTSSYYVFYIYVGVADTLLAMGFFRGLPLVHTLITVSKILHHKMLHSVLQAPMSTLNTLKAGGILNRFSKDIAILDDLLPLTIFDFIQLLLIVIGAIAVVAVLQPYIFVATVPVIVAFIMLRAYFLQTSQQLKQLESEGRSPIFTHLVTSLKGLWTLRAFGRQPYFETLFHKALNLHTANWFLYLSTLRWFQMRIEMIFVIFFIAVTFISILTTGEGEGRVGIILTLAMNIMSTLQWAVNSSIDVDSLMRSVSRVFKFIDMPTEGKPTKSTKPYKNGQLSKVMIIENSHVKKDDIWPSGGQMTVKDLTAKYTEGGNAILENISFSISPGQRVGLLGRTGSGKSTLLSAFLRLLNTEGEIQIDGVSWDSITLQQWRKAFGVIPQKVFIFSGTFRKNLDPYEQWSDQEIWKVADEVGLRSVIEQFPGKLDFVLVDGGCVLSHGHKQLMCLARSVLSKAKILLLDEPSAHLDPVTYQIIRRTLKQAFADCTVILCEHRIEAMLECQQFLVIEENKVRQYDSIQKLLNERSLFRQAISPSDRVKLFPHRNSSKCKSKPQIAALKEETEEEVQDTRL
- Assay Method Text: Membrane Potential Dye, Enteroid Assay B
- Type: cell-based
Property Label: Ent. B Max Activity (%)

Cc1cccc(C)c1-c1cc2cc(n1)NS(=O)(=O)c1cccc(n1)C(=O)N(C1CC3(CC3)C1)[C@H](CC(C)C)CO2 = +++ (+++ is >60%)
CCOC(=O)N1CCC2(CC1)CC(N1C(=O)c3cccc(c3)S(=O)(=O)Nc3nc(cc(-c4c(C)cccc4C)n3)OC[C@H]1CC(C)C)C2 = +++ (+++ is >60%)

---

- Measurement Target: CFTR (Homo sapiens, UniProt P13569)
- Assay Method Text: Membrane Potential Dye, Enteroid Assay B
- Format: cell-based
Property Label: Ent. B Max Activity (%)

Cc1cccc(C)c1-c1cc2nc(n1)NS(=O)(=O)c1cccc(c1)C(=O)N(C1CC3(CC3)C1)[C@H](CC1(C(F)(F)F)CC1)CO2 [Compound 198] = +++ (+++ is >60%)
Cc1cccc(C)c1-c1cc2nc(n1)NS(=O)(=O)c1cccc(c1)C(=O)N(C1CC3(CCN(C(=O)OC(C)(C)C)CC3)C1)[C@H](CC1(C(F)(F)F)CC1)CO2 [Compound 127] = +++ (+++ is >60%)
Cc1cccc(C)c1-c1cc2nc(n1)NS(=O)(=O)c1cccc(c1)C(=O)N(C1CC(C(=O)N3CCOCC3)C1)[C@H](CC(C)C)CO2 (stereo partly drawn) [Compound 307] = +++ (+++ is >60%)

---

- Measurement Target: CFTR (Homo sapiens)
- Assay Method Text: Membrane Potential Dye, Enteroid Assay B
- Type: cell-based
Property Label: Ent. B Max Activity (%)

CCOCCN1CCC2(CC1)CC(N1C(=O)c3cccc(c3)S(=O)(=O)Nc3nc(cc(-c4c(C)cccc4C)n3)OC[C@H]1CC(C)C)C2 [Compound 310] = +++ (+++ is >60%)
Cc1cccc(C)c1-c1cc2nc(n1)NS(=O)(=O)c1cccc(c1)C(=O)N([C@H]1C[C@@H](NC(=O)OC(C)C)C1)[C@H](CC(C)C)CO2 (single isomer, unassigned) [Compound 63] = +++ (+++ is >60%)

---

// reported pEC50 for each item listed
- Measurement Target: CFTR (Homo sapiens, UniProt P13569)
- Assay Method Text: Membrane Potential Dye, Enteroid Assay B
- Type: cell-based
- Stated Conditions: Table 9, read-out: Ent. B EC50
pEC50: −log10 of the molar value.

Would you please look over these solved cases?
Cc1cccc(C)c1-c1cc2nc(n1)NS(=O)(=O)c1cccc(c1)C(=O)N(C1CC(NC(=O)C(C)C)C1)[C@H](CC(C)(C)C)CO2 (stereo in doubt) [Compound 445] = > 6.00
CNC1CC2(C1)CC(N1C(=O)c3cccc(c3)S(=O)(=O)Nc3nc(cc(-c4c(C)cccc4C)n3)OC[C@H]1CC(C)C)C2 (stereo in doubt) [Compound 282] = > 6.00

Now let's try a different one.
Lab book: pEC50 of Cc1cccc(C)c1-c1cc2nc(n1)NS(=O)(=O)c1cccc(c1)C(=O)N([C@H]1C[C@@H](NC(C)C)C1)[C@H](CC(C)C)CO2 [Compound 367] noted as > 6.00

---

- Measurement Target: CFTR (Homo sapiens, UniProt P13569)
- Assay Method Text: Membrane Potential Dye, Enteroid Assay A
- Assay type: cell-based
- Stated Conditions: read-out: Ent. A EC50
pEC50: −log10 of the molar value.
Property Label: pEC50

Would you please look over these solved cases?
Cc1cccc(C)c1-c1cc2nc(n1)NS(=O)(=O)c1cccc(c1)C(=O)N([C@H]1C[C@@H](OCc3ccccc3)C1)[C@H](CC(C)C)CO2 (single isomer, unassigned) [Compound 42] = > 6.00
COC(=O)NC1CC2(C1)CC(N1C(=O)c3cccc(c3)S(=O)(=O)Nc3nc(cc(-c4c(C)cccc4C)n3)OC[C@H]1CC(C)C)C2 (stereo partly drawn) [Compound 326] = > 6.00

Lab book: pEC50 of Cc1cccc(C)c1-c1cc2nc(n1)NS(=O)(=O)c1cccc(c1)C(=O)N(C1CC(C(=O)O)C1)[C@H](CC(C)C)CO2 (stereo partly drawn) [Compound 35] noted as 4.52 to 5.52

---

- Measurement Target: CFTR (Homo sapiens)
- Assay Method Text: Membrane Potential Dye, Enteroid Assay A
- Type: cell-based
- Protocol: Base medium (ADF+++) consisted of Advanced […], 2 mM Glutamax, 10 mM HEPES, 1 μg/mL penicillin/streptomycin. […] Enteroid cells were incubated with test compound in IEMM for 18-24 hours at 37° C., 95% humidity and 5% CO2. […] Chloride transport was initiated by addition of Chloride Free Dye Stimulation Solution and the fluorescence signal was read for 15 min. […]
Property Label: Ent. A Max Activity (%)

CC(=O)N1CC2(CC(N3C(=O)c4cccc(c4)S(=O)(=O)Nc4nc(cc(-c5c(C)cccc5C)n4)OC[C@H]3CC(C)C)C2)C1 [Compound 335] = ++ (++ is 30-60%)
Cc1cccc(C)c1-c1cc2nc(n1)NS(=O)(=O)c1cccc(c1)C(=O)N(C1CC3(CCN(CC(F)(F)F)CC3)C1)[C@H](CC(C)C)CO2 [Compound 18] = +++ (+++ is >60%)
Cc1cccc(C)c1-c1cc2nc(n1)NS(=O)(=O)c1cccc(c1)C(=O)N([C@H]1C[C@@H](O)C1)[C@H](CC(C)C)CO2 (single isomer, unassigned) [Compound 44] = +++ (+++ is >60%)
Cc1cccc(C)c1-c1cc2nc(n1)NS(=O)(=O)c1cccc(n1)C(=O)N(C1CC3(CC3)C1)[C@H](CC(C)(C)C)CO2 [Compound 401] = +++ (+++ is >60%)

Lab book: Ent. A Max Activity (%) of Cc1cccc(C)c1-c1cc2nc(n1)NS(=O)(=O)c1cccc(c1)C(=O)N(C1CC3(CC3)C1)[C@H](C)CO2 [Compound 126] noted as ++ (++ is 30-60%)

Lab book: Ent. A Max Activity (%) of Cc1cccc(C)c1-c1cc2nc(n1)NS(=O)(=O)c1cccc(c1)C(=O)N(C1CC3(CC3)C1)C(CC(F)(F)F)CO2 (single isomer, unassigned) [Compound 125] noted as ++ (++ is 30-60%)

Lab book: Ent. A Max Activity (%) of Cc1cccc(C)c1-c1cc2nc(n1)NS(=O)(=O)c1cccc(c1)C(=O)N(C1CC3(CC3)C1)[C@H](CC1(C(F)(F)F)CC1)CO2 [Compound 198] noted as +++ (+++ is >60%)

Lab book: Ent. A Max Activity (%) of Cc1cccc(C)c1-c1cc2nc(n1)NS(=O)(=O)c1cccc(c1)C(=O)N(C1CC3(CCN(C(C)C)CC3)C1)[C@H](CC(C)C)CO2 [Compound 17] noted as +++ (+++ is >60%)

---

- Measurement Target: CFTR (Homo sapiens)
- Assay Method Text: Membrane Potential Dye, Enteroid Assay B
- Type: cell-based
- Stated Conditions: Table 10
Property Label: Ent. B Max Activity (%)

Cc1cccc(C)c1-c1cc2nc(n1)NS(=O)(=O)c1cccc(c1)C(=O)N(C1CC3(CC(C(=O)N(C)C)C3)C1)[C@H](CC(C)(C)C)CO2 (single isomer, unassigned) = +++ (+++ is >60%)
CC(=O)NCC[C@H]1C[C@@H](N2C(=O)c3cccc(c3)S(=O)(=O)Nc3nc(cc(-c4c(C)cccc4C)n3)OC[C@H]2CC(C)(C)C)C1 (single isomer, unassigned) [Compound 155] = +++ (+++ is >60%)
CNC(=O)C1CC2(C1)CC(N1C(=O)c3cccc(c3)S(=O)(=O)Nc3nc(cc(-c4c(C)cccc4C)n3)OC[C@H]1CC(C)(C)C)C2 (some centres unmarked) [Compound 234] = +++ (+++ is >60%)

---

- Measurement Target: CFTR (Homo sapiens, UniProt P13569)
- Assay Method Text: Membrane Potential Dye, Enteroid Assay B
- Assay type: cell-based
- Procedure: Base medium (ADF+++) consisted of Advanced […], 2 mM Glutamax, 10 mM HEPES, 1 μg/mL penicillin/streptomycin. […] Enteroid cells were incubated with test compound in IEMM for 18-24 hours at 37° C., 95% humidity and 5% CO2. […] Chloride transport was initiated by addition of Chloride Free Dye Stimulation Solution and the fluorescence signal was read for 15 min. […]
Property Label: Ent. B Max Activity (%)

Cc1cccc(C)c1-c1cc2nc(n1)NS(=O)(=O)c1cccc(c1)C(=O)N(C1CC3(CCN(C(=O)OC(C)C)CC3)C1)C[C@@H](C)O2 [Compound 181] = +++ (+++ is >60%)
COC(=O)N1CCC2(CC1)CC(N1C(=O)c3cccc(n3)S(=O)(=O)Nc3nc(cc(-c4c(C)cccc4C)n3)OC[C@H]1CC(C)C)C2 [Compound 391] = +++ (+++ is >60%)
Cc1cccc(C)c1-c1cc2nc(n1)NS(=O)(=O)c1cccc(c1)C(=O)N(C1CC3(CC3)C1)C[C@@H](C)O2 [Compound 180] = +++ (+++ is >60%)
